- ASSAY_EXPLANATION: Rodent pharmacokinetics, male Balb/c mouse, plasma PK
- Assay type: in vivo
- MEASUREMENT_CONTEXT: plasma, PO, 10 mg/kg, Mesylate Salt
- Method: Animals in Group 1 were administered intravenously with Example B solution formulation in 20% Propylene Glycol, 50% of PEG 400 and 30% of (20% HPβCD in water) via tail vein at a dose of 3 mg/kg. Animals in Group 2 were administered with oral solution formulation of Example B in 20% Propylene Glycol, 50% of PEG 400 and 30% of (20% HPβCD in water) at a dose of 10 mg/kg; Dosing: 10 mg/kg P.O. and 3 mg/kg I.V. […]
REPORTED_METRIC: AUC(0-inf) (ng·h/mL)
Answers are plain numbers, in ng·h/mL.

Can you give me AUC(0-inf) for all of these, one by one?
1. c1cc(-c2nc(N3CCOCC3)c3oc4ncc(CN5CCC6(CC5)COC6)cc4c3n2)c2cc[nH]c2c1
2. c1cc(-c2nc(N3CCOCC3)c3oc4ncc(CN5CCC56COC6)cc4c3n2)c2cc[nH]c2c1

Reply |
4100
2140

---

Could you please report measured AUC(0-t) for the items listed next?
- ASSAY_EXPLANATION: Rodent pharmacokinetics, male Balb/c mouse, plasma PK
- Assay type: in vivo
- MEASUREMENT_CONTEXT: plasma, PO, 10 mg/kg, Mesylate Salt
Could you give the number and then its unit, please?

[
  {
    "COMPOUND": "c1cc(-c2nc(N3CCOCC3)c3oc4ncc(CN5CCC6(CC5)COC6)cc4c3n2)c2cc[nH]c2c1 [Example B]",
    "RESULT": "3730 ng·h/mL"
  }
]

Next item in the queue.
Ask | Which AUC(0-t) is listed for c1cc(-c2nc(N3CCOCC3)c3oc4ncc(CN5CCC56COC6)cc4c3n2)c2cc[nH]c2c1 [Example G] ?
Reply | 1890 ng·h/mL

---

- ASSAY_EXPLANATION: Rodent pharmacokinetics, male CD1 mouse, plasma PK
- Format: in vivo
- MEASUREMENT_CONTEXT: male, CD1, mouse, plasma, iv, 5 mg/kg, HCl Salt
REPORTED_METRIC: clearance (mL/min/kg)
Numbers only, in mL/min/kg.

Ask | Endpoint output: clearance of c1cc(-c2nc(N3CCOCC3)c3oc4ncc(CN5CCCCC5)cc4c3n2)c2cc[nH]c2c1 [Example I in WO2011/021038] . Value?
Reply | 55

---

Could you please report measured Vd for the items listed next?
- ASSAY_EXPLANATION: Rodent pharmacokinetics, male Balb/c mouse, plasma PK
- Format: in vivo
- MEASUREMENT_CONTEXT: plasma, IV, 3 mg/kg, Mesylate Salt, read-out: Vss
Answers are plain numbers, in L/kg.

[
  {
    "GIVEN_SMILES": "c1cc(-c2nc(N3CCOCC3)c3oc4ncc(CN5CCC6(CC5)COC6)cc4c3n2)c2cc[nH]c2c1",
    "Vd [L/kg]": 5.51
  }
]

// next entry
Ask | Any idea what Vd was measured for c1cc(-c2nc(N3CCOCC3)c3oc4ncc(CN5CCC56COC6)cc4c3n2)c2cc[nH]c2c1 ?
Reply | 1.25

---

- ASSAY_EXPLANATION: Rodent pharmacokinetics, male CD1 mouse, plasma PK
- Format: in vivo
- MEASUREMENT_CONTEXT: male, CD1, mouse, plasma, iv, 5 mg/kg, Mesylate Salt
I'd appreciate it if you could supply clearance values for the items below.
One number for each entry, in L/h/kg.

[
  {
    "GIVEN_SMILES": "c1cc(-c2nc(N3CCOCC3)c3oc4ncc(CN5CCCCC5)cc4c3n2)c2cc[nH]c2c1",
    "NUMERIC_READOUT": 3.97
  }
]

Ask | Data request, read-out clearance, for c1cc(-c2nc(N3CCOCC3)c3oc4ncc(CN5C[C@@H]6C[C@H]5CO6)cc4c3n2)c2cc[nH]c2c1
Reply | 1.27

---

- ASSAY_EXPLANATION: Rodent pharmacokinetics, male CD1 mouse, plasma PK
- Format: in vivo
- MEASUREMENT_CONTEXT: male, CD1, mouse, plasma, po, 10 mg/kg, HCl Salt
REPORTED_METRIC: Cmax

Ask | # get_value(readout='Cmax', item= c1cc(-c2nc(N3CCOCC3)c3oc4ncc(CN5CCCCC5)cc4c3n2)c2cc[nH]c2c1 [Example I in WO2011/021038] )
Reply | 322 ng/mL

---

- ASSAY_EXPLANATION: Rodent pharmacokinetics, male CD1 mouse, plasma PK
- Format: in vivo
- MEASUREMENT_CONTEXT: male, CD1, mouse, plasma, po, 10 mg/kg, Mesylate Salt
Field: AUC(0-inf). Provide a value for each of the molecules that follow.
Answers are plain numbers, in ng·h/mL.

[
  {
    "GIVEN_SMILES": "c1cc(-c2nc(N3CCOCC3)c3oc4ncc(CN5C[C@@H]6C[C@H]5CO6)cc4c3n2)c2cc[nH]c2c1",
    "AUC(0-inf) [ng·h/mL]": 5820
  }
]

Next item in the queue.
Ask | Consider the molecule shown here: c1cc(-c2nc(N3CCOCC3)c3oc4ncc(CN5CCCCC5)cc4c3n2)c2cc[nH]c2c1 What is its recorded AUC(0-inf)?
Reply | 700

---

- ASSAY_EXPLANATION: Rodent pharmacokinetics, male CD1 mouse, plasma PK
- Type: in vivo
- MEASUREMENT_CONTEXT: male, CD1, mouse, plasma, iv, 5 mg/kg, Mesylate Salt
For each of the molecules below, state its AUC(0-inf).
One number for each entry, in ng·h/mL.

[
  {
    "GIVEN_SMILES": "c1cc(-c2nc(N3CCOCC3)c3oc4ncc(CN5CCCCC5)cc4c3n2)c2cc[nH]c2c1",
    "REPORTED_METRIC": "AUC(0-inf)",
    "VALUE_UNIT": "ng·h/mL",
    "NUMERIC_READOUT": 1260
  }
]

Ask | Give its AUC(0-inf) value. Item: c1cc(-c2nc(N3CCOCC3)c3oc4ncc(CN5C[C@@H]6C[C@H]5CO6)cc4c3n2)c2cc[nH]c2c1
Reply | 3950

---

- ASSAY_EXPLANATION: Rodent pharmacokinetics, male CD1 mouse, plasma PK
- Format: in vivo
- MEASUREMENT_CONTEXT: male, CD1, mouse, plasma, iv, 5 mg/kg, Mesylate Salt
Exercise: for every item that follows, state its recorded Vd.
Numbers only, in L/kg.

[
  {
    "GIVEN_SMILES": "c1cc(-c2nc(N3CCOCC3)c3oc4ncc(CN5CCCCC5)cc4c3n2)c2cc[nH]c2c1",
    "REPORTED_METRIC": "Vd",
    "NUMERIC_READOUT": 4.6
  }
]

Consider the additional compound presented here.
Ask | Reported Vd, compound c1cc(-c2nc(N3CCOCC3)c3oc4ncc(CN5C[C@@H]6C[C@H]5CO6)cc4c3n2)c2cc[nH]c2c1 : ____
Reply | 2.44

---

- ASSAY_EXPLANATION: Rodent pharmacokinetics, male CD1 mouse, plasma PK
- Format: in vivo
- MEASUREMENT_CONTEXT: male, CD1, mouse, plasma, po, 10 mg/kg, HCl Salt
REPORTED_METRIC: AUC(0-t) (ng·h/mL)
Give bare numbers, in ng·h/mL.

Ask | I'd like to know its AUC(0-t). The molecule in question is c1cc(-c2nc(N3CCOCC3)c3oc4ncc(CN5CCCCC5)cc4c3n2)c2cc[nH]c2c1
Reply | 849

---

- ASSAY_EXPLANATION: Rodent pharmacokinetics, male CD1 mouse, plasma PK
- Type: in vivo
- MEASUREMENT_CONTEXT: male, CD1, mouse, plasma, iv, 5 mg/kg, 5 mg/kg I.V., summary
Can you tell me clearance for the items I'm about to list?
Answers are plain numbers, in mL/min/kg.

[
  {
    "GIVEN_SMILES": "c1cc(-c2nc(N3CCOCC3)c3oc4ncc(CN5CCCCC5)cc4c3n2)c2cc[nH]c2c1",
    "NUMERIC_READOUT": 66
  }
]

Ask | Look up clearance for this compound: c1cc(-c2nc(N3CCOCC3)c3oc4ncc(CN5C[C@@H]6C[C@H]5CO6)cc4c3n2)c2cc[nH]c2c1
Reply | 21

---

Answer each item with its documented Cmax.
- ASSAY_EXPLANATION: Rodent pharmacokinetics, male Balb/c mouse, plasma PK
- Assay type: in vivo
- MEASUREMENT_CONTEXT: plasma, IV, 3 mg/kg, Mesylate Salt
- Description: Animals in Group 1 were administered intravenously with Example B solution formulation in 20% Propylene Glycol, 50% of PEG 400 and 30% of (20% HPβCD in water) via tail vein at a dose of 3 mg/kg. Animals in Group 2 were administered with oral solution formulation of Example B in 20% Propylene Glycol, 50% of PEG 400 and 30% of (20% HPβCD in water) at a dose of 10 mg/kg; Dosing: 10 mg/kg P.O. and 3 mg/kg I.V. […]
# include the unit after the value

[
  {
    "GIVEN_SMILES": "c1cc(-c2nc(N3CCOCC3)c3oc4ncc(CN5CCC56COC6)cc4c3n2)c2cc[nH]c2c1",
    "Cmax": "2210 ng/mL"
  }
]

Ask | What measured Cmax goes with c1cc(-c2nc(N3CCOCC3)c3oc4ncc(CN5CCC6(CC5)COC6)cc4c3n2)c2cc[nH]c2c1 ?
Reply | 621 ng/mL
